- System: Escherichia coli DH5[alpha]
- ASSAY INFO: Agonist activity at Escherichia coli DH5alpha (pJN105L + pSC11) LasR assessed as activation of quorum sensing at 10 uM relative to N-(3-oxo)-dodecanoyl HL
- Assay type: functional
PROPERTY MEASURED: Activity (%)
The reply should be a number in %, with the unit left off.

Entry CCOC(=O)CNC(=O)Cc1ccc(Br)cc1 under Escherichia coli DH5[alpha] had Activity of 0

Test item CCOC(=O)CNC(=O)Cc1ccc(SC(F)(F)F)cc1 ; Escherichia coli DH5[alpha]; reported Activity was 0

With Escherichia coli DH5[alpha] as the test system, O=C(CCCc1c[nH]c2ccccc12)NC1CCCC1 showed Activity of 0

Entry CCCCCCCCCC(=O)CC(=O)N[C@@H](C)C(=O)OC ; assay system Escherichia coli DH5[alpha]; Activity recorded at 2

Entry CCCCCCCCCC(=O)CC(=O)NCc1cc(F)cc(F)c1 , tested on Escherichia coli DH5[alpha], has a reported Activity of 0

Entry CCOC(=O)CNC(=O)CCc1ccc(OC)cc1 ; assay system Escherichia coli DH5[alpha]; Activity recorded at 0

====

- TESTED TARGET: Transcriptional activator protein LasR (Pseudomonas aeruginosa (strain ATCC 15692 / PAO1 / 1C / PRS 101 / LMG12228))
- ASSAY INFO: Agonist activity at Pseudomonas aeruginosa PAO1 MW1 (pUM15) LasR assessed as activation of quorum sensing at 10 uM relative to N-(3-oxo)-dodecanoyl HL
- Assay type: functional
Record form. Attribute: Activity. Fill in for each entry.
Write the number in % without appending the unit.

response.value for CCCCCCCCCC(=O)CC(=O)NCc1c(F)cccc1F (field: Activity) = 0

Measured Activity, O=C(CCCc1c[nH]c2ccccc12)NC1CCCC1 : 2

response.value for CCOC(=O)CNC(=O)Cc1cccc([N+](=O)[O-])c1 (field: Activity) = 0

Sample CCCCCCCCCC(=O)CC(=O)Nc1ccccc1 ; Activity observed: 1

The value of Activity measured for the molecule O=C(Cc1ccc(Br)cc1)NC1CCCC1 turned out to be 0

Reported Activity for CCCCCCCCCC(=O)CC(=O)NCc1ccco1 was 0

Entry under test: CCCCCCCCCC(=O)CC(=O)NCc1cc(F)cc(F)c1 . Its Activity was 0

Activity reported for this molecule CCCCCCCCCC(=O)CC(=O)NCCC1=CCCCC1 : 4

Noted for CCOC(=O)CNC(=O)CCc1ccc(Cl)cc1 : its Activity reads 0

Input CCOC(=O)CNC(=O)CCc1cccc(I)c1 . Output Activity: 0

// Activity value for CCCCCCCCCC(=O)CC(=O)N[C@@H](C)C(=O)OC : 0

Data point: CCOC(=O)CNC(=O)CCc1ccc(OC)cc1 ; Activity = 0

====

- TESTED TARGET: Transcriptional activator protein LasR (Pseudomonas aeruginosa (strain ATCC 15692 / PAO1 / 1C / PRS 101 / LMG12228))
- Sequence (whole entry): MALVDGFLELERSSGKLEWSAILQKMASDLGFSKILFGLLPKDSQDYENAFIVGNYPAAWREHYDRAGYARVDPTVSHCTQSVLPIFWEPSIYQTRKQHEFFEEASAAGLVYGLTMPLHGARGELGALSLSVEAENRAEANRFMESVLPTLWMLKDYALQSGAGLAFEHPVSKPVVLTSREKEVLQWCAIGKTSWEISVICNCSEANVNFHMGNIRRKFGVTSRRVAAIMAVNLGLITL
- ASSAY INFO: Antagonist activity at Pseudomonas aeruginosa PAO1 MW1 (pUM15) LasR assessed as inhibition of N-(3-oxo)-dodecanoyl HL-induced quorum sensing activation at 10 uM relative to untreated control
- Type: functional
Consider the following molecules; for each one, report its inhibition.
Output spec: scalar in %, unitless text.

Form field inhibition, entry CCCCCCCCCC(=O)CC(=O)NCCC(c1ccccc1)c1ccccc1 : 8

Data point: CCCCCCCCCC(=O)CC(=O)NCc1ccc(F)cc1 ; inhibition = 13

Record CCCCCCCCCC(=O)CC(=O)Nc1ccccc1 , field inhibition: 29

The recorded inhibition for CCCCCCCCCC(=O)CC(=O)NCc1ccco1 is 26

Sure, the documented inhibition for CCOC(=O)CNC(=O)Cc1ccccc1 is -10

# inhibition (molecule: COc1ccc(CC(=O)NC2CCCC2)cc1 ) is -1

Input CCCCCCCCCC(=O)CC(=O)NCc1cccc([N+](=O)[O-])c1 . Output inhibition: 17

get_value(item= CCCCCCCCCC(=O)CC(=O)NCc1cc(F)cc(F)c1 , readout=inhibition) returns 16

O=C(CCCc1c[nH]c2ccccc12)NC1CCCC1 yielded inhibition of -10

Entry CCCCCCCCCC(=O)CC(=O)NCc1ccccc1F , inhibition reported as 13

Briefly, inhibition measured for O=C(Cc1cccc([N+](=O)[O-])c1)NC1CCCC1 : -5

Recorded result, CCCCCCCCCC(=O)CC(=O)NCCC1=CCCCC1 , inhibition: -7

Entry under test: CCCCCCCCCC(=O)CC(=O)NCc1ccc(OC)cc1 . Its inhibition was 38

====

- Tested on: Escherichia coli DH5[alpha]
- ASSAY INFO: Agonist activity at Escherichia coli DH5alpha (pJN105L + pSC11) LasR assessed as activation of quorum sensing at 10 uM relative to N-(3-oxo)-dodecanoyl HL
- Type: functional
PROPERTY MEASURED: Activity (%)
Report only the number, with the unit % understood.

Reported Activity for CCOC(=O)CNC(=O)Cc1ccccc1 was 0

Entry O=C(Cc1ccc(Br)cc1)Nc1ccccc1 , Activity reported as 3

Reported Activity for CCCCCCCCCC(=O)CC(=O)NCc1cccc([N+](=O)[O-])c1 was 0

// sample CCCCCCCCCC(=O)CC(=O)NC1CCCC1 , its Activity was 84

Memo: CCCCCCCCCC(=O)CC(=O)NCc1c(F)cccc1F , reported Activity: 1

compound O=C(Cc1ccc(Br)cc1)NC1CCCC1 , Activity observed: 0

Looking up O=C(Cc1ccc(-c2ccccc2)cc1)NC1CCCC1 , I found its Activity recorded as 0

Item: CCCCCCCCCC(=O)CC(=O)NCC(=O)OCC | Activity: 51

response.value for O=C(Cc1ccccc1)NC1CCCC1 (field: Activity) = 0

Reported Activity ( CCCCCCCCCC(=O)Nc1ccccc1 ) = 3

Per the record, O=C(Cc1cccc([N+](=O)[O-])c1)Nc1ccccc1 has Activity of 0

get_value(item= CCCCCCCCCC(=O)CC(=O)NCc1ccc(OC)cc1 , readout=Activity) returns 73

The recorded Activity for CCCCCCCCCC(=O)CC(=O)NCc1ccccc1F is 0

====

Hi there, I'd appreciate the recorded inhibition for every entry that follows.
- TESTED TARGET: Transcriptional activator protein TraR (Agrobacterium tumefaciens) (UniProt P33905)
- Sequence (P33905 whole entry): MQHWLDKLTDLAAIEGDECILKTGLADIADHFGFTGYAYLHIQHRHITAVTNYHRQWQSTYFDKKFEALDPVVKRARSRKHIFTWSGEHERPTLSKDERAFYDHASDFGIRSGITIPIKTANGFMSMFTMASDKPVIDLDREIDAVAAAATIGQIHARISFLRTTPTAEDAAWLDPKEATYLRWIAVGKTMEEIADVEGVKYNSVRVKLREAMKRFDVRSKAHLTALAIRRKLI
- ASSAY INFO: Antagonist activity at Agrobacterium tumefaciens WCF (pCF372) TraR assessed as inhibition of OOHL-induced quorum sensing activation at 10 uM relative to untreated control
- Assay type: functional
Numbers only; they are read as %.

Value (inhibition, Transcriptional activator protein TraR (Agrobacterium tumefaciens) (UniProt P33905)) for record CCCCCCCCCC(=O)CC(=O)NCc1cc(F)cc(F)c1 = -10

Log: Transcriptional activator protein TraR (Agrobacterium tumefaciens) (UniProt P33905), molecule CCCCCCCCCC(=O)CC(=O)NCC(=O)OCC , inhibition = -3

# lookup: CCCCCCCCCC(=O)CC(=O)NCc1cccc([N+](=O)[O-])c1 on Transcriptional activator protein TraR (Agrobacterium tumefaciens) (UniProt P33905), inhibition = -6

Observed inhibition on Transcriptional activator protein TraR (Agrobacterium tumefaciens) (UniProt P33905), entry CCCCCCCCCC(=O)CC(=O)NCc1ccco1 , equals 1

====

- TESTED TARGET: Transcriptional activator protein LuxR (Aliivibrio fischeri) (UniProt P12746)
- Sequence (P12746 whole entry): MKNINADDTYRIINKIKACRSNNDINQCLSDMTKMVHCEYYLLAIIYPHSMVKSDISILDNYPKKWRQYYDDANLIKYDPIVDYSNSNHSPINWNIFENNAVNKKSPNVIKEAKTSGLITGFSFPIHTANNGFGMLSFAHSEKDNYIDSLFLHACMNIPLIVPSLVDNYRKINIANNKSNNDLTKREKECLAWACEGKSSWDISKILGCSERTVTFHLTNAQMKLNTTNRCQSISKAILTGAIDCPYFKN
- ASSAY INFO: Agonist activity at Vibrio fischeri ESI 114 (delta-LuxI) LuxR assessed as activation of quorum sensing at 10 uM relative to OHHL
- Type: functional
PROPERTY MEASURED: Activity
Include the unit after the number when you answer.

Here O=C(Cc1ccc(Br)cc1)NC1CCCC1 was tested on Transcriptional activator protein LuxR (Aliivibrio fischeri) (UniProt P12746), and its Activity came to 0%

# value of Activity, Transcriptional activator protein LuxR (Aliivibrio fischeri) (UniProt P12746), item CCCCCCCCCC(=O)CC(=O)NCc1c(F)cccc1F = 5%

Record for CCOC(=O)CNC(=O)Cc1ccc(Br)cc1 under target or system Transcriptional activator protein LuxR (Aliivibrio fischeri) (UniProt P12746): Activity reported as 0%

Lab entry: Transcriptional activator protein LuxR (Aliivibrio fischeri) (UniProt P12746) assay, molecule CCCCCCCCCC(=O)CC(=O)NCc1ccccc1F , Activity = 2%

The recorded Activity with Transcriptional activator protein LuxR (Aliivibrio fischeri) (UniProt P12746) for COc1ccc(CC(=O)NC2CCCC2)cc1 was 3%

# CCCCCCCCCC(=O)CC(=O)NCC(=O)OCC with Transcriptional activator protein LuxR (Aliivibrio fischeri) (UniProt P12746): Activity is 8%

Field Activity (system: Transcriptional activator protein LuxR (Aliivibrio fischeri) (UniProt P12746)) for entry O=C(Cc1ccc(-c2ccccc2)cc1)NC1CCCC1 = 5%

O=C(Cc1ccc(Br)cc1)Nc1ccccc1 tested on Transcriptional activator protein LuxR (Aliivibrio fischeri) (UniProt P12746) gave Activity: 0%

Transcriptional activator protein LuxR (Aliivibrio fischeri) (UniProt P12746) data for CCCCCCCCCC(=O)Nc1ccccc1 ; its Activity: 7%

Short answer on Transcriptional activator protein LuxR (Aliivibrio fischeri) (UniProt P12746) for CCCCCCCCCC(=O)CC(=O)NCc1ccc(OC)c(OC)c1 , Activity: 1%

With Transcriptional activator protein LuxR (Aliivibrio fischeri) (UniProt P12746) as the test system, CCCCCCCCCC(=O)CC(=O)NCCC(c1ccccc1)c1ccccc1 showed Activity of 6%

Given the molecule O=C(Cc1ccccc1)NC1CCCC1 and test system Transcriptional activator protein LuxR (Aliivibrio fischeri) (UniProt P12746), the measured Activity is 0%

Item CCOC(=O)CNC(=O)CCc1ccc(Cl)cc1 ; assay system Transcriptional activator protein LuxR (Aliivibrio fischeri) (UniProt P12746); Activity reported as 0%

Lab note: molecule CCCCCCCCCC(=O)CC(=O)NCc1cc(F)cc(F)c1 tested on Transcriptional activator protein LuxR (Aliivibrio fischeri) (UniProt P12746); recorded Activity was 3%

Field Activity (Transcriptional activator protein LuxR (Aliivibrio fischeri) (UniProt P12746)), entry CCCCCCCCCC(=O)CC(=O)NCCc1ccccc1 : 1%

Observed Activity, Transcriptional activator protein LuxR (Aliivibrio fischeri) (UniProt P12746), CCCCCCCCCC(=O)CC(=O)N[C@@H](C)C(=O)OC : 4%

Lab entry: Transcriptional activator protein LuxR (Aliivibrio fischeri) (UniProt P12746) assay, molecule O=C(CCCc1c[nH]c2ccccc12)NC1CCCC1 , Activity = 4%

Reported Transcriptional activator protein LuxR (Aliivibrio fischeri) (UniProt P12746) Activity for item O=C(Cc1cccc([N+](=O)[O-])c1)Nc1ccccc1 was 0%

Value (Activity, Transcriptional activator protein LuxR (Aliivibrio fischeri) (UniProt P12746)) for record CCCCCCCCCC(=O)CC(=O)NCc1ccc(OC)cc1 = 2%
